Target: T1, extracellular domain (ECD) of recombinant human Sortilin with a C-terminal HIS tag (ECD-huSortilin-HIS) (human, UniProt Q99523 78-755)
T1 construct: Bought (R&D Systems); also called human sortilin-ECD; not shown: C-terminal HIS tag
T1 sequence: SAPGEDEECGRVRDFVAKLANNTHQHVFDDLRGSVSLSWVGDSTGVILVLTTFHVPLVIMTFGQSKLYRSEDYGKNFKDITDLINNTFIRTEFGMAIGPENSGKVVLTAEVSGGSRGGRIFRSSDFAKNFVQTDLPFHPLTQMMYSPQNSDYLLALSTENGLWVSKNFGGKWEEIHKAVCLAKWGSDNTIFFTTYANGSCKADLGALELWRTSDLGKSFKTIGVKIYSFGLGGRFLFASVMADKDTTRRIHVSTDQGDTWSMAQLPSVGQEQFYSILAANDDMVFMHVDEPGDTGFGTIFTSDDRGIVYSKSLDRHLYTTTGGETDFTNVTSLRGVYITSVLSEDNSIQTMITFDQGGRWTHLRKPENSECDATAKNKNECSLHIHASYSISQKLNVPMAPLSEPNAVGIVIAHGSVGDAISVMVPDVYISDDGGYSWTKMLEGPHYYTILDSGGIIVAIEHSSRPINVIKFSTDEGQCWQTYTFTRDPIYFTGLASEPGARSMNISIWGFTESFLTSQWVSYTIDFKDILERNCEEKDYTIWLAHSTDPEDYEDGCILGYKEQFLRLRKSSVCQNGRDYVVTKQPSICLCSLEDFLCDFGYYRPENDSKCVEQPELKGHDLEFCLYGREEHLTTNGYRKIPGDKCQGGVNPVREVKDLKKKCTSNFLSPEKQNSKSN
Test: SPR (Biacore T200), mAb captured by anti-human antibody on CM5, Sortilin 0.1-300 nM as analyte, global 1:1 fit
PROPERTY NAME: koff (s⁻¹)
I only need the number, in s⁻¹, no unit after it.

{"BINDER": "humanized 8H24 hu8H24VHv2/hu8H24VLv2 (antibody, V domains shown, Human IgG; also called 8H24H2L2) VH: QAQLVQSGAEVVKPGSSVKVSCKASGYTFTSYSMHWVRQAPGQGLEWIGAIYPGNDATSYNQKFKGRATLTVDKSTSTAYMELSSLRSEDTAVYFCAREGYYGSSFEAWFASWGQGTTVTVSS VL: DVVMTQTPSSLPVTPGEPASISCRSSQSIVHSNGNTYLEWYLQKPGQSPQLLIYKVSNRFSGVPDRFSGSGSGTDFTLTISRVEAEDVGVYYCFQGSHVLPTFGGGTKVEIK", "koff, s⁻¹": 0.0015}
{"BINDER": "humanized 5E20 hu5E20VHv5/hu5E20VLv3 (antibody, V domains shown, Human IgG; also called 5E20H5L3) VH: EVQLVESGGGLVQPGGSLRLSCAASGFTFSTYGMSWVRQAPDKRLEWVAIISSGGSYTYYSDTVKGRFTISRDNSKNSLYLQMNSLKAEDTAVYYCSRSSSHWYFDVWGQGTLVTVSS VL: DIQMTQSPSSVSASVGDRVTITCHASQGISSNIGWLQQKPGKAFKGLIYHGTNLKDGVPSRFSGSGSGADFTLTISSLQPEDFATYFCVQYAQFPYTFGQGTKVEKR", "koff, s⁻¹": 0.0014}
{"BINDER": "humanized 11M14 hu11M14VHv3b/hu11M14VLv2b (antibody, V domains shown, Human IgG; also called 11M14H3bL2b) VH: EVQLVESGGGLVQPGGSLRLSCAASGFTFNIYGMSWVRQAPGKGLEWVATISSGGIYTYYPDILKGRFTISRDNAKNSLYGQMNSLRAEDTAVYYCARHPGGAMDYWGQGTLVTVSS VL: DIQMTQSPSSLSASVGDRVTITCRVSENIYSNLAWYQQKPGKSPKLLVYAATNLADGVPSRFSGSGSGTDYTLTISSLQPEDFATYYCQHFWGTPPWTFGQGTKLEIK", "koff, s⁻¹": 0.00225}

# context switch: different binder, same koff
Exam item: Please look up its koff: humanized 11M14 hu11M14VHv1b/hu11M14VLv3b (antibody, V domains shown, Human IgG; also called 11M14H1bL3b; hu11M14H1bL3b) VH: EVQLVESGGGLVQPGGSLRLSCAASGFTFNIYGMSWVRQAPGKGLEWVATISSGGIYTYYPDILKGRFTISRDNAKNSLYLQMNSLRAEDTAVYYCARHPGGAMDYWGQGTLVTVSS VL: DIQMTQSPSSLSASVGDRVTITCRVSENIYSNLAWYQQKPGKSPKLLVYAATNGADGVPSRFSGSGSGTDYTLTISSLQPEDFATYYCQHFWGTPPWTFGQGTKLEIK
Marked response: 0.002

These measurements were taken from patent US20230235048A1.
